test system: SF-268; assay: NCI 60 human tumor cell line screen (SRB); type: cell-based; conditions: SF-268 (CNS Cancer); 48 h
Metric name: Log10TGI50
Answers are plain numbers.

• CC(C)C[C@H](NC(=O)[C@H](Cc1ccccc1)NC(=O)[C@H](COC(F)F)NC(=O)CN1CCOCC1)C(=O)[C@@]1(C)CO1 = −7.14

Batch of 3 molecules: report Log10TGI50 for each.
1. Cc1ncc(C(=O)N[C@@H](COC(F)F)C(=O)N[C@@H](COC(F)F)C(=O)N[C@@H](Cc2ccccc2)C(=O)[C@@]2(C)CO2)s1
2. C[C@]1(C(=O)[C@H](Cc2ccccc2)NC(=O)[C@H](COC(F)F)NC(=O)[C@H](COC(F)F)NC(=O)CN2CCOCC2)CO1
3. C[C@]1(C(=O)[C@H](Cc2ccccc2)NC(=O)[C@H](Cc2ccccc2)NC(=O)[C@H](COC(F)F)NC(=O)CN2CCOCC2)CO1

*A*
1: −5.90; 2: −7.14; 3: −6.50

----------
system: HOP-92; assay: NCI 60 human tumor cell line screen (SRB); format: cell-based; conditions: HOP-92 (Non-Small Cell Lung Cancer); 48 h
Exercise: state measured Log10GI50 for each of the compounds provided.
One number for each entry.

Take a look at these entries with their results.
- Cc1ncc(C(=O)N[C@@H](COC(F)F)C(=O)N[C@@H](COC(F)F)C(=O)N[C@@H](Cc2ccccc2)C(=O)[C@@]2(C)CO2)s1: −6.23
- C[C@]1(C(=O)[C@H](Cc2ccccc2)NC(=O)[C@H](Cc2ccccc2)NC(=O)[C@H](COC(F)F)NC(=O)CN2CCOCC2)CO1: −7.18
- C[C@]1(C(=O)[C@H](Cc2ccccc2)NC(=O)[C@H](COC(F)F)NC(=O)[C@H](COC(F)F)NC(=O)CN2CCOCC2)CO1: −7.65

Please turn your attention to the following entry.
*Q* // Log10GI50 lookup, key: "CC(C)C[C@H](NC(=O)[C@H](Cc1ccccc1)NC(=O)[C@H](COC(F)F)NC(=O)CN1CCOCC1)C(=O)[C@@]1(C)CO1"
*A* −7.65

----------
Tested on: UACC-257
Test: NCI 60 human tumor cell line screen (SRB)
Format: cell-based
Conditions: UACC-257 (Melanoma); 48 h
Method: […] Following drug addition, the plates are incubated for an additional 48 h at 37° C., 5% CO2, 95% air, and 100% relative humidity. […] Bound stain is subsequently solubilised with 10 mM trizma base, and the absorbance is read on an automated plate reader at a wavelength of 515 nm. […] Percentage growth inhibition is calculated as: [(Ti−Tz)/(C−Tz)]×100 for concentrations in which Ti>/=Tz and [(Ti−Tz)/Tz]×100 for concentrations in which Ti<Tz. […]
Metric name: Log10TGI50
Answers are plain numbers.

Take a look at these entries with their results.
* C[C@]1(C(=O)[C@H](Cc2ccccc2)NC(=O)[C@H](Cc2ccccc2)NC(=O)[C@H](COC(F)F)NC(=O)CN2CCOCC2)CO1 | −6.00
* CC(C)C[C@H](NC(=O)[C@H](Cc1ccccc1)NC(=O)[C@H](COC(F)F)NC(=O)CN1CCOCC1)C(=O)[C@@]1(C)CO1 | −6.32
* Cc1ncc(C(=O)N[C@@H](COC(F)F)C(=O)N[C@@H](COC(F)F)C(=O)N[C@@H](Cc2ccccc2)C(=O)[C@@]2(C)CO2)s1 | −6.20

Please turn your attention to the following entry.
*Q* // Log10TGI50 lookup, key: "C[C@]1(C(=O)[C@H](Cc2ccccc2)NC(=O)[C@H](COC(F)F)NC(=O)[C@H](COC(F)F)NC(=O)CN2CCOCC2)CO1"
*A* −6.32
